- ASSAY_TARGET: CSNK1G2 (human) (UniProt P78368)
- Sequence (P78368 whole entry, looked up): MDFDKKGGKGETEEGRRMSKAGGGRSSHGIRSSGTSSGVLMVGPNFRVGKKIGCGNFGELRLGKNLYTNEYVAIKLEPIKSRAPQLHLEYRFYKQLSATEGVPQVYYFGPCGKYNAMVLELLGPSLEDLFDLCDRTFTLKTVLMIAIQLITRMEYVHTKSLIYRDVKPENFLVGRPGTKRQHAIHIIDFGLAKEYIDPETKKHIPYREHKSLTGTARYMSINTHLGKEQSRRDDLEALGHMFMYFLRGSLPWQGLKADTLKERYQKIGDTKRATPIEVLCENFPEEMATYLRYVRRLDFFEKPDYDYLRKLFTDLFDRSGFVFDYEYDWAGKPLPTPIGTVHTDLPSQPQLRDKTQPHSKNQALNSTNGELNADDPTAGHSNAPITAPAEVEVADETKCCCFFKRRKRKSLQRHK
- ASSAY_REMARKS: radiometric filter-binding kinase assay, Kinase HotSpot
- DETAILS: compound 0.5 µM; ATP 10 µM
So I've got a bunch of compounds here, and I need their residual activity values.
Your answer should be a plain number; it is taken to be in %.

For reference, reported residual activity for N/C(=N\N=C/c1ccc(-c2cccc([N+](=O)[O-])c2)o1)N[N+](=O)[O-] stands at 101

For O=C1NC(=O)c2cc(Nc3ccc(F)cc3)c(Nc3ccc(F)cc3)cc21 the compound record lists residual activity as 97.5

For this compound ( O=c1cc(N2CCOCC2)oc2c(-c3ccccc3)cccc12 ), measured residual activity is 94.4

Given item c1ccc(-c2cnc(Nc3ccc(OCCN4CCCC4)cc3)s2)cc1 , the value recorded as its residual activity is 100

Lab note: measured residual activity of COc1cc2ncnc(Nc3ccc(O)c(Br)c3)c2cc1OC was 96.4

Item: Cn1cc(/C=C2\C(=O)Nc3ccc(S(N)(=O)=O)cc32)c2ccccc21 | residual activity: 100

residual activity measured on COc1cc2c(Nc3ccc(Br)cc3F)ncnc2cc1OCC1CCN(C)CC1 = 98.5

Sure, the documented residual activity for O=c1[nH]c2ccccc2n1C1CCN(Cc2ccc(-c3nc4cc5[nH]cnc5cc4nc3-c3ccccc3)cc2)CC1 is 101

Sure, the documented residual activity for CCc1nc(-c2ccc(OC)cc2)[nH]c1-c1ccncc1 is 97.7

Kindly note the recorded residual activity for N#Cc1c(NC(=O)c2cccc3ccccc23)sc2c1CCCC2 , which is 103

Sure, the documented residual activity for COc1cccc(-c2cc(=O)c3ccccc3o2)c1N is 98.4

The compound N#CCCc1ccc2c(c1)-c1[nH]c3ccc([N+](=O)[O-])cc3c1CC(=O)N2 showed residual activity equal to 84.8

Reported residual activity ( O=C1NC(=O)c2c1c1c3ccccc3[nH]c1c1[nH]c3cc(Br)ccc3c21 ) = 89.5

Consider O=S(=O)(NCCNC/C=C/c1ccc(Br)cc1)c1cccc2cnccc12 . Its measured residual activity is 86.8

The reported value for Cc1cc(Nc2nc(-c3ccccc3)nc3ccccc23)n[nH]1 in terms of residual activity is 69.3

All values here come from the kinase profiling compilation of Christmann-Franck et al. (2016).
